- Tested on: MOLT-4 leukemia
- test method notes: NCI tumour cell line growth inhibition, 48 h
readout kind: TGI

Data point: CC(=O)N1C(Nc2ccccn2)CCN1c1ccccc1 (stereo not drawn) ; TGI = > 10 µM

Data point: "NC(=O)NNc1nc2ccccc2c(=O)n1NC(=O)C(=O)Nc1ccc(Cl)cc1Cl" ; TGI = > 100 µM

Data point: N#CC12C(=O)N3C(=NC(c4ccccc4)NC3c3ccccc3)C1(C#N)C(c1ccccc1)NC1=C2CCC1 (stereo not drawn) ; TGI = > 100 µM

Data point: COc1cc(C2CC(c3ccc4c(c3)OCO4)=NN2C=O)cc(OC)c1OC (stereo not drawn) ; TGI = > 100 µM

Data point: CCCCCCCCCCC(C(=O)O)C1(C(=O)O)CCC(=O)O1 (stereo not drawn) ; TGI = > 100 µM

Data point: "ONc1ncnc2nc[nH]c12" ; TGI = > 100 µM

Data point: "COc1ccc2sc3c(NCCCN(C)C)nc4ccccc4c3c(=O)c2c1" ; TGI = 3.56 µM

Data point: "CCOC(=O)c1nc2ccc(Cl)cc2c2c1Cc1ccccc1-2" ; TGI = > 100 µM

Data point: CS(=O)(=O)N1CC(CCl)c2ccc([N+](=O)[O-])cc21 (stereo not drawn) ; TGI = > 100 µM

Data point: "O=C(N/N=C(/c1ccccc1)C(F)(F)F)c1ccncc1" ; TGI = > 100 µM

Data point: CCOC(=O)c1c(N)sc2c1C(C(=O)OCC)CC2 (stereo not drawn) ; TGI = > 100 µM

Data point: "C[C@@H]1C[C@H]2CC[C@H](O2)[C@H](C)C(=O)O[C@@H](C)C[C@@H]2CC[C@@H](O2)[C@@H](C)C(=O)O[C@H](C)C[C@H]2CC[C@H](O2)[C@H](C)C(=O)O[C@@H](C)C[C@@H]2CC[C@@H](O2)[C@@H](C)C(=O)O1" ; TGI = 22 µM

Data point: "N#CCc1nc2ccccc2c(=O)[nH]1" ; TGI = > 100 µM

Data point: "CCN(CC)CCCNc1nc(=O)[nH]c(C)c1C(=O)Nc1cccc2cc3ccccc3cc12" ; TGI = > 100 µM

Data point: "COC(=O)[C@@]1(C)CC[C@]2(C)CC[C@]3(C)C4=CC=C5C(=CC(=O)C(O)=C5C)[C@]4(C)[C@@H](O)C[C@@]3(C)[C@@H]2C1" ; TGI = 20.1 µM

Data point: O=C(CCC(NC(=O)OCc1ccccc1)C(=O)OCc1ccccc1)Nc1ccc(OCc2ccccc2)cc1 (stereo not drawn) ; TGI = > 31.6 µM

Data point: "C[C@]12CC[C@@H]3c4ccc(OP(=O)(O)O)cc4CC[C@H]3[C@@H]1CCC2=O" ; TGI = > 100 µM

Data point: "O=c1cc(-c2ccccc2)[nH]c2ccccc12" ; TGI = > 100 µM

Data point: CCCC1(NC(=O)C(F)(F)F)CC(OC)OC2COC(c3ccccc3)OC21 (stereo not drawn) ; TGI = > 100 µM

Data point: "COc1ccc(OC)c(NC(=O)C2=C(C)NC(C)=C(C(=O)Nc3cc(OC)ccc3OC)C2c2ccccc2)c1" ; TGI = > 100 µM

Data point: COc1cc(OC)c2c(c1)C(=O)C(CC(C)O)=CC2=O (stereo not drawn) ; TGI = 41.8 µM

Data point: "O=C1C(Cl)=C(OCCCCl)C(=O)c2c(O)ccc(O)c21" ; TGI = 1.86 µM

Data point: "COc1cc(/C=C/c2cc(O)c3cc(C(C)=O)c(=O)oc3c2)cc2c1O[C@]1(C)CC[C@@H](O)C(C)(C)[C@H]1C2" ; TGI = > 26.4 µM

Data point: "CCOC(=O)c1cc(NS(=O)(=O)c2ccccc2)cc(C(=O)OCC)c1" ; TGI = > 100 µM

Data point: "O=C1c2ccccc2S(=O)(=O)c2c1cccc2[N+](=O)[O-]" ; TGI = 6.04 µM

Data point: "CC(C)[C@H]1CO[C@]2(C)[C@@H]3CN(Cc4ccccc4)C[C@@H]3C(=O)N12" ; TGI = > 100 µM

Data point: "COc1ccc(C2=Nc3ccccc3NC(=O)C2)cc1" ; TGI = > 100 µM

Data point: CN(C)C(=O)OC(Cn1cncn1)c1ccc(Cl)cc1Cl (stereo not drawn) ; TGI = > 100 µM

Data point: "COc1ccc(-c2ccc(/C=N/n3c(COc4ccc(Cl)cc4Cl)nn(CN4CCOCC4)c3=S)o2)c([N+](=O)[O-])c1" ; TGI = 63.3 µM

Data point: "C=CCOc1ccc(/C(N=Nc2ccc(Cl)cc2)=N/NC(=O)c2ccccc2)cc1OC" ; TGI = > 100 µM

Data point: O=C(C1OC1c1ccc(O)cc1)C12CC3CC(CC(C3)C1)C2 (stereo not drawn) ; TGI = > 55.2 µM

Data point: "CCN(CC)CCC(=O)c1ccc(Oc2ccc(Cl)cc2)cc1" ; TGI = 42.2 µM

Data point: C=CC/C=C/Cc1csc(C(C)(C)C(O)C/C=C/C(=C)CCNC(=O)OC)n1 (stereo not drawn) ; TGI = > 100 µM

Data point: "COc1ccc(-c2n/c(=C\c3c(O)[nH]c4ccc(OC)cc34)cc3c2=Nc2ccccc2-3)cc1" ; TGI = 5.27 µM

Data point: "CC(=O)OCOC(=O)CN(CC(=O)OCOC(C)=O)Cc1cc2c(cc1OC(C)=O)Oc1cc(OC(C)=O)c(CN(CC(=O)OCOC(C)=O)CC(=O)OCOC(C)=O)cc1C21OC(=O)c2ccccc21" ; TGI = 0.843 µM

Data point: "CC(=O)N1C(=O)/C(=C\C(=O)c2ccc([N+](=O)[O-])cc2)c2ccccc21" ; TGI = 51.6 µM

Data point: CC(=O)OCC1OC(SC2=N/C(=C\c3cc4c(=O)c5ccccc5sc4s3)C(=O)N2c2ccccc2)C(OC(C)=O)C(OC(C)=O)C1OC(C)=O (stereo not drawn) ; TGI = 54.4 µM

Data point: "COc1ccc2nc(-c3ccc(-c4noc(-c5cc(OC)c(OC)c(OC)c5)n4)cc3)[nH]c2c1" ; TGI = 59.1 µM

====

- System: SF-268 CNS
- test method notes: NCI tumour cell line growth inhibition, 48 h
readout kind: TGI

Data point: Cc1nc2cccc(F)c2c(=O)n1C1CCCCNC1=O (stereo not given) ; TGI = > 10 µM

Data point: "CCOc1ccc(NC(=O)C(=O)CC(=O)C2=C(C)Nc3ccccc3S2)cc1" ; TGI = > 50 µM

Data point: COc1ccc(/C=C2\CCCC3=C2N=C2SC(C)=NN2C3c2ccc(OC)c(OC)c2)cc1OC (stereo not given) ; TGI = > 100 µM

Data point: "COc1cc(/C=C/c2cc(O)c3cc(C(C)=O)c(=O)oc3c2)cc2c1O[C@]1(C)CC[C@@H](O)C(C)(C)[C@H]1C2" ; TGI = > 56.4 µM

Data point: "N#C/C(=C\c1ccc(O)c(O)c1)C(N)=S" ; TGI = > 100 µM

====

- System: CCRF-CEM leukemia
- test method notes: NCI tumour cell line growth inhibition, 48 h
readout kind: TGI (µM)
Kindly answer with a numeric value in µM, unit omitted.

"C=CCOc1ccc(/C(N=Nc2ccc(Cl)cc2)=N/NC(=O)c2ccccc2)cc1OC" tested on CCRF-CEM leukemia gave TGI: 86.9

"CC(=O)OCOC(=O)CN(CC(=O)OCOC(C)=O)Cc1cc2c(cc1OC(C)=O)Oc1cc(OC(C)=O)c(CN(CC(=O)OCOC(C)=O)CC(=O)OCOC(C)=O)cc1C21OC(=O)c2ccccc21" tested on CCRF-CEM leukemia gave TGI: 0.374

"O=C(O)/C=C\C(=O)N1C/C(=C\c2ccccc2Cl)C(=O)/C(=C/c2ccccc2Cl)C1" tested on CCRF-CEM leukemia gave TGI: 6.66

"O=C(/C=C/c1ccccc1)c1cc(Br)ccc1O" tested on CCRF-CEM leukemia gave TGI: 33.9

====

- System: SW-620 colon
- test method notes: NCI tumour cell line growth inhibition, 48 h; in the data active = GI50 below about 0.43 µM; inactive = the rest
The reply should be one of these categories: class 1 (active), class 0 (inactive)

QUERY: Could you please tell me the result logged for "Cc1cc(N(CCCl)CCCl)ccc1C=Nc1ccc(-c2csc(Cc3ccccc3)n2)cc1" in this assay?
RESULT: class 0

QUERY: Could you please tell me the result logged for "Cc1ccccc1[P+](Cc1ccccc1)(c1ccccc1)c1ccccc1" in this assay?
RESULT: class 0

QUERY: Could you please tell me the result logged for COc1cc2c(c(OC)c1)C1c3ccccc3NC(=O)N1CC2 (stereo unspecified) in this assay?
RESULT: class 0

QUERY: Could you please tell me the result logged for CCCCCCCCCCCCCCCCN1CC2CCCCC2C1 (stereo unspecified) in this assay?
RESULT: class 0

QUERY: Could you please tell me the result logged for "COc1ccc2sc3c(NCCCN(C)C)nc4ccccc4c3c(=O)c2c1" in this assay?
RESULT: class 0

QUERY: Could you please tell me the result logged for "COc1ccc2c(c1)/C(=C\c1c(C)nc3sccn13)C(=O)N2" in this assay?
RESULT: class 1
